Test system: EG C (cellulase)
PROTOCOL_DESCRIPTION: Coupled cellobiose oxidase/DCPIP assay for cellulases
Type: biochemical
CONDITIONS: reduced cellodextrin substrate
Known kcat of a selection of compounds

IN: Query kcat on EG C (cellulase) for OC[C@@H](O)[C@@H](O[C@@H]1O[C@H](CO)[C@@H](O[C@@H]2O[C@H](CO)[C@@H](O)[C@H](O)[C@H]2O)[C@H](O)[C@H]1O)[C@H](O)[C@@H](O)CO [Red. DP3]
OUT: 0 s⁻¹

IN: Query kcat on EG C (cellulase) for OC[C@@H](O)[C@@H](O[C@@H]1O[C@H](CO)[C@@H](O[C@@H]2O[C@H](CO)[C@@H](O[C@@H]3O[C@H](CO)[C@@H](O[C@@H]4O[C@H](CO)[C@@H](O[C@@H]5O[C@H](CO)[C@@H](O)[C@H](O)[C@H]5O)[C@H](O)[C@H]4O)[C@H](O)[C@H]3O)[C@H](O)[C@H]2O)[C@H](O)[C@H]1O)[C@H](O)[C@@H](O)CO [Red. DP6]
OUT: 11 s⁻¹

IN: Query kcat on EG C (cellulase) for OC[C@@H](O)[C@@H](O[C@@H]1O[C@H](CO)[C@@H](O[C@@H]2O[C@H](CO)[C@@H](O[C@@H]3O[C@H](CO)[C@@H](O[C@@H]4O[C@H](CO)[C@@H](O)[C@H](O)[C@H]4O)[C@H](O)[C@H]3O)[C@H](O)[C@H]2O)[C@H](O)[C@H]1O)[C@H](O)[C@@H](O)CO [Red. DP5]
OUT: 13 s⁻¹

IN: Query kcat on EG C (cellulase) for OC[C@@H](O)[C@@H](O[C@@H]1O[C@H](CO)[C@@H](O[C@@H]2O[C@H](CO)[C@@H](O[C@@H]3O[C@H](CO)[C@@H](O)[C@H](O)[C@H]3O)[C@H](O)[C@H]2O)[C@H](O)[C@H]1O)[C@H](O)[C@@H](O)CO [Red. DP4]
OUT: 0.43 s⁻¹

---

Test system: Endo B (cellulase)
PROTOCOL_DESCRIPTION: Coupled cellobiose oxidase/DCPIP assay for cellulases
Type: biochemical
CONDITIONS: reduced cellodextrin substrate
Known kcat of a selection of molecules
Provide only the numeric value, understood in s⁻¹.

// worked examples, kcat included
# MOLECULE, UNIT_OF_MEASURE, kcat
rows = [
    ("OC[C@@H](O)[C@@H](O[C@@H]1O[C@H](CO)[C@@H](O[C@@H]2O[C@H](CO)[C@@H](O)[C@H](O)[C@H]2O)[C@H](O)[C@H]1O)[C@H](O)[C@@H](O)CO [Red. DP3]", "s⁻¹", 0),
    ("OC[C@@H](O)[C@@H](O[C@@H]1O[C@H](CO)[C@@H](O[C@@H]2O[C@H](CO)[C@@H](O[C@@H]3O[C@H](CO)[C@@H](O[C@@H]4O[C@H](CO)[C@@H](O[C@@H]5O[C@H](CO)[C@@H](O)[C@H](O)[C@H]5O)[C@H](O)[C@H]4O)[C@H](O)[C@H]3O)[C@H](O)[C@H]2O)[C@H](O)[C@H]1O)[C@H](O)[C@@H](O)CO [Red. DP6]", "s⁻¹", 14),
    ("OC[C@@H](O)[C@@H](O[C@@H]1O[C@H](CO)[C@@H](O[C@@H]2O[C@H](CO)[C@@H](O[C@@H]3O[C@H](CO)[C@@H](O)[C@H](O)[C@H]3O)[C@H](O)[C@H]2O)[C@H](O)[C@H]1O)[C@H](O)[C@@H](O)CO [Red. DP4]", "s⁻¹", 0.84),
]

IN: Reported kcat for OC[C@@H](O)[C@@H](O[C@@H]1O[C@H](CO)[C@@H](O[C@@H]2O[C@H](CO)[C@@H](O[C@@H]3O[C@H](CO)[C@@H](O[C@@H]4O[C@H](CO)[C@@H](O)[C@H](O)[C@H]4O)[C@H](O)[C@H]3O)[C@H](O)[C@H]2O)[C@H](O)[C@H]1O)[C@H](O)[C@@H](O)CO [Red. DP5] : what is it?
OUT: 0.86
